Assay Info: activity coefficient (dimensionless); of the first substance listed, at infinite dilution; xn = mol fraction of the nth substance listed
Protocol Conditions: 303.15 K; Liquid; Chromatography; x1 = 0
Measurement Label: activity coefficient

1) Cc1ccccc1 [toluene] + CCCCCCCCn1cc[n+](C)c1.O=S(=O)([N-]S(=O)(=O)C(F)(F)F)C(F)(F)F :: 0.82
2) C=CCCCCCC [oct-1-ene] + CCCCCCCCn1cc[n+](C)c1.O=S(=O)([N-]S(=O)(=O)C(F)(F)F)C(F)(F)F :: 5.57
3) C1CCOC1 [tetrahydrofuran] + CCCCCC[n+]1ccn(C)c1.O=S(=O)([N-]S(=O)(=O)C(F)(F)F)C(F)(F)F :: 0.49
4) Cc1cccc(C)c1 [1,3-dimethylbenzene] + CCCCCC[n+]1ccn(C)c1.O=S(=O)([N-]S(=O)(=O)C(F)(F)F)C(F)(F)F :: 1.4

----------
Assay Info: activity coefficient (dimensionless); of the first substance listed, at infinite dilution; xn = mol fraction of the nth substance listed
Protocol Conditions: 333.15 K; Liquid; dilutor; x1 = 0
Below, each of the molecules is paired with its reported activity coefficient value.
Measurement Label: activity coefficient

1. C1CCCCC1 [cyclohexane] + CCCC[N+]1(C)CCCC1.O=S(=O)([N-]S(=O)(=O)C(F)(F)F)C(F)(F)F :: 7.42
2. C=CCCCC [hex-1-ene] + CCCC[N+]1(C)CCCC1.O=S(=O)([N-]S(=O)(=O)C(F)(F)F)C(F)(F)F :: 6.64
3. C=CCCCCC [1-heptene] + CCCCCC[n+]1ccn(C)c1.O=S(=O)([N-]S(=O)(=O)C(F)(F)F)C(F)(F)F :: 5.86
4. CCO [ethanol] + CCCC[N+]1(C)CCCC1.O=S(=O)([N-]S(=O)(=O)C(F)(F)F)C(F)(F)F :: 1.5
5. CCCC(C)=O [pentan-2-one] + CCCC[N+]1(C)CCCC1.O=S(=O)([N-]S(=O)(=O)C(F)(F)F)C(F)(F)F :: 0.71
6. CCCCCCC [heptane] + CCCC[N+]1(C)CCCC1.O=S(=O)([N-]S(=O)(=O)C(F)(F)F)C(F)(F)F :: 17.2
7. C1CCCC1 [cyclopentane] + CCCCCCCCn1cc[n+](C)c1.O=S(=O)([N-]S(=O)(=O)C(F)(F)F)C(F)(F)F :: 2.56
8. C=CCCCCCC [oct-1-ene] + CCCCCC[n+]1ccn(C)c1.O=S(=O)([N-]S(=O)(=O)C(F)(F)F)C(F)(F)F :: 7.77
9. CCCCCCCC [octane] + CCCCCC[n+]1ccn(C)c1.O=S(=O)([N-]S(=O)(=O)C(F)(F)F)C(F)(F)F :: 12.8
10. CCCCCC [hexane] + CCCC[N+]1(C)CCCC1.O=S(=O)([N-]S(=O)(=O)C(F)(F)F)C(F)(F)F :: 11
11. C1CCCC1 [cyclopentane] + CCCC[N+]1(C)CCCC1.O=S(=O)([N-]S(=O)(=O)C(F)(F)F)C(F)(F)F :: 5.12
12. C=CCCCCC [1-heptene] + CCCC[N+]1(C)CCCC1.O=S(=O)([N-]S(=O)(=O)C(F)(F)F)C(F)(F)F :: 9.37
13. CCCCCC [hexane] + CCCCCCCCn1cc[n+](C)c1.O=S(=O)([N-]S(=O)(=O)C(F)(F)F)C(F)(F)F :: 4.97
14. CCCCCCC [heptane] + CCCCCC[n+]1ccn(C)c1.O=S(=O)([N-]S(=O)(=O)C(F)(F)F)C(F)(F)F :: 9.77
15. C1CCCCC1 [cyclohexane] + CCCCCC[n+]1ccn(C)c1.O=S(=O)([N-]S(=O)(=O)C(F)(F)F)C(F)(F)F :: 4.68
16. CCCCCCC [heptane] + CCCCCCCCn1cc[n+](C)c1.O=S(=O)([N-]S(=O)(=O)C(F)(F)F)C(F)(F)F :: 6.4

----------
Assay Info: activity coefficient (dimensionless); of the first substance listed, at infinite dilution; xn = mol fraction of the nth substance listed
Protocol Conditions: 303.15 K; Liquid; dilutor; x1 = 0
Below, each of the compounds is paired with its reported activity coefficient value.
Measurement Label: activity coefficient

1. CCO [ethanol] + CCCC[N+]1(C)CCCC1.O=S(=O)([N-]S(=O)(=O)C(F)(F)F)C(F)(F)F :: 1.84
2. CCCCC [pentane] + CCCC[N+]1(C)CCCC1.O=S(=O)([N-]S(=O)(=O)C(F)(F)F)C(F)(F)F :: 9.22
3. C=CCCC [1-pentene] + CCCC[N+]1(C)CCCC1.O=S(=O)([N-]S(=O)(=O)C(F)(F)F)C(F)(F)F :: 4.95
4. CCCCCCCC [octane] + CCCCCC[n+]1ccn(C)c1.O=S(=O)([N-]S(=O)(=O)C(F)(F)F)C(F)(F)F :: 14.4
5. C=CCCCCC [1-heptene] + CCCCCC[n+]1ccn(C)c1.O=S(=O)([N-]S(=O)(=O)C(F)(F)F)C(F)(F)F :: 6.28
6. C=CCCCC [hex-1-ene] + CCCCCC[n+]1ccn(C)c1.O=S(=O)([N-]S(=O)(=O)C(F)(F)F)C(F)(F)F :: 4.64
7. CCC(C)=O [butanone] + CCCC[N+]1(C)CCCC1.O=S(=O)([N-]S(=O)(=O)C(F)(F)F)C(F)(F)F :: 0.52

----------
Below, each of the molecules is paired with its reported activity coefficient value.
Assay Info: activity coefficient (dimensionless); of the first substance listed, at infinite dilution; xn = mol fraction of the nth substance listed
Protocol Conditions: 333.15 K; Liquid; dilutor; x1 = 0
Measurement Label: activity coefficient

1) CCC(C)=O [butanone] + CCCC[N+]1(C)CCCC1.O=S(=O)([N-]S(=O)(=O)C(F)(F)F)C(F)(F)F :: 0.56
2) CC(C)=O [acetone] + CCCCCC[n+]1ccn(C)c1.O=S(=O)([N-]S(=O)(=O)C(F)(F)F)C(F)(F)F :: 0.34
3) C=CCCC [1-pentene] + CCCCCCCCn1cc[n+](C)c1.O=S(=O)([N-]S(=O)(=O)C(F)(F)F)C(F)(F)F :: 2.52
4) CC(C)O [propan-2-ol] + CCCCCC[n+]1ccn(C)c1.O=S(=O)([N-]S(=O)(=O)C(F)(F)F)C(F)(F)F :: 1.23

----------
Assay Info: activity coefficient (dimensionless); of the first substance listed, at infinite dilution; xn = mol fraction of the nth substance listed
Protocol Conditions: 313.15 K; Liquid; Chromatography; x1 = 0
Measurement Label: activity coefficient

1. C=CCCCCCC [oct-1-ene] + CCCCCC[n+]1ccn(C)c1.O=S(=O)([N-]S(=O)(=O)C(F)(F)F)C(F)(F)F :: 8.47
2. CO [methanol] + CCCCCCCCn1cc[n+](C)c1.O=S(=O)([N-]S(=O)(=O)C(F)(F)F)C(F)(F)F :: 1.14
3. Cc1ccc(C)cc1 [1,4-dimethylbenzene] + CCCCCC[n+]1ccn(C)c1.O=S(=O)([N-]S(=O)(=O)C(F)(F)F)C(F)(F)F :: 1.42
4. CCCCC [pentane] + CCCCCCCCn1cc[n+](C)c1.O=S(=O)([N-]S(=O)(=O)C(F)(F)F)C(F)(F)F :: 3.94
5. c1ccccc1 [benzene] + CCCCCCCCn1cc[n+](C)c1.O=S(=O)([N-]S(=O)(=O)C(F)(F)F)C(F)(F)F :: 0.65
6. C=CCCCCC [1-heptene] + CCCCCC[n+]1ccn(C)c1.O=S(=O)([N-]S(=O)(=O)C(F)(F)F)C(F)(F)F :: 6.28
7. CCCCCCC [heptane] + CCCCCCCCn1cc[n+](C)c1.O=S(=O)([N-]S(=O)(=O)C(F)(F)F)C(F)(F)F :: 6.55

----------
Assay Info: activity coefficient (dimensionless); of the first substance listed, at infinite dilution; xn = mol fraction of the nth substance listed
Protocol Conditions: 303.15 K; Liquid; dilutor; x1 = 0
Below, each of the molecules is paired with its reported activity coefficient value.
Measurement Label: activity coefficient

1. CCCCCCCC [octane] + CCCC[N+]1(C)CCCC1.O=S(=O)([N-]S(=O)(=O)C(F)(F)F)C(F)(F)F :: 28.3
2. C1CCCCC1 [cyclohexane] + CCCC[N+]1(C)CCCC1.O=S(=O)([N-]S(=O)(=O)C(F)(F)F)C(F)(F)F :: 8.75
3. CCCCCCC [heptane] + CCCCCCCCn1cc[n+](C)c1.O=S(=O)([N-]S(=O)(=O)C(F)(F)F)C(F)(F)F :: 7.01
4. CCCCC [pentane] + CCCCCCCCn1cc[n+](C)c1.O=S(=O)([N-]S(=O)(=O)C(F)(F)F)C(F)(F)F :: 3.98
5. CC(C)O [propan-2-ol] + CCCCCC[n+]1ccn(C)c1.O=S(=O)([N-]S(=O)(=O)C(F)(F)F)C(F)(F)F :: 1.72
6. C=CCCCCC [1-heptene] + CCCCCCCCn1cc[n+](C)c1.O=S(=O)([N-]S(=O)(=O)C(F)(F)F)C(F)(F)F :: 4.33
7. C1CCCCC1 [cyclohexane] + CCCCCC[n+]1ccn(C)c1.O=S(=O)([N-]S(=O)(=O)C(F)(F)F)C(F)(F)F :: 5.29
8. C1CCCCC1 [cyclohexane] + CCCCCCCCn1cc[n+](C)c1.O=S(=O)([N-]S(=O)(=O)C(F)(F)F)C(F)(F)F :: 3.67
9. C1CCCC1 [cyclopentane] + CCCC[N+]1(C)CCCC1.O=S(=O)([N-]S(=O)(=O)C(F)(F)F)C(F)(F)F :: 6.14
10. O [water] + CCCCCCCCn1cc[n+](C)c1.O=S(=O)([N-]S(=O)(=O)C(F)(F)F)C(F)(F)F :: 3.76
11. c1ccccc1 [benzene] + CCCC[N+]1(C)CCCC1.O=S(=O)([N-]S(=O)(=O)C(F)(F)F)C(F)(F)F :: 0.84
12. C1CCCC1 [cyclopentane] + CCCCCCCCn1cc[n+](C)c1.O=S(=O)([N-]S(=O)(=O)C(F)(F)F)C(F)(F)F :: 2.68
13. CCCCCC [hexane] + CCCC[N+]1(C)CCCC1.O=S(=O)([N-]S(=O)(=O)C(F)(F)F)C(F)(F)F :: 13.8
14. C1=CCCCC1 [cyclohexene] + CCCCCC[n+]1ccn(C)c1.O=S(=O)([N-]S(=O)(=O)C(F)(F)F)C(F)(F)F :: 3.2
15. CC(C)O [propan-2-ol] + CCCC[N+]1(C)CCCC1.O=S(=O)([N-]S(=O)(=O)C(F)(F)F)C(F)(F)F :: 2.11
